Target: ATP-dependent potassium channels (K+ATP) (Rattus norvegicus)
Construct: the potassium channels derive from a rat's cerebral cortex; tissue CEREP
Assay: [3H]glibenclamide binding to ATP-dependent potassium channels of rat cerebral cortex
Conditions: FIG. 2
Recorded IC50 values for a group of compounds are listed next.
Report the value in nM with no unit label.

compound="CCCCC(NC(=O)Cc1ccc(OC(C)(C)C(=O)O)cc1)c1ccccc1N1CCCCC1 (centres unmarked) [Compound 10]" assayedsystem="ATP-dependent potassium channels (K+ATP) (Rattus norvegicus)" measurement=63

The record that follows has no IC50 shown yet.
Q) What measured IC50 is associated with CC(C)CC(NC(=O)Cc1ccc(OC(C)(C)C(=O)O)cc1)c1ccccc1N1CCCCC1 (centres unmarked) [Compound 1] on ATP-dependent potassium channels (K+ATP) (Rattus norvegicus)?
A) 14

* * *

Consider the following compounds and their measured activation at 10 µM readings.
Biological target: hPPARγ (Homo sapiens)
Construct: fragments of DNA amplified by PCR corresponding to the DEF domains of the human PPARα, PPARγ PPARδ nuclear receptors; expressed in transfected cells; host or cells: COS-7 (monkey kidney fibroblast line)
Test: Gal4-hPPARγ chimera transactivation in COS-7 cells (luciferase)
Type: cell-based
Conditions: induction factor standardised to an internal reference, read-out: % hGal4-PPAR transactivation (10 μM) gamma
Give the value in % but do not write % after it.

compound="CCCCCCC(NC(=O)Cc1ccc(OC(C)(C)C(=O)O)cc1)c1ccccc1N1CCCCC1 (stereo not shown) [Compound 5]" readoutunit=% measurement=82
compound="CC(C)CC(NC(=O)Cc1ccc(OCCCCOc2ccc(OC(C)(C)C(=O)O)cc2)cc1)c1ccccc1N1CCCCC1 (stereo not shown) [Compound 40]" readoutunit=% measurement=55
compound="COc1ccc(CC(NC(=O)Cc2ccc(OC(C)(C)C(=O)O)cc2)c2ccccc2N2CCCCC2)cc1 (stereo not shown) [Compound 48]" readoutunit=% measurement=17

Q) Record Cc1cccc(CC(NC(=O)Cc2ccc(OC(C)(C)C(=O)O)cc2)c2ccccc2N2CCCCC2)c1 (stereo not shown) [Compound 55] : what is its activation at 10 µM with hPPARγ (Homo sapiens)?
A) 33

Q) Same thing, different compound: CCCCC(NC(=O)Cc1ccc(OC(C)(C)C(=O)O)cc1)c1ccccc1OC (stereo not shown) [Compound 54]
A) 30

Q) Next: CC(C)CC(NC(=O)Cc1ccc(OC(C)(C)C(=O)O)cc1)c1ccc(C(F)(F)F)cc1N1CCCCC1 (stereo not shown) [Compound 21]
A) 25

* * *

compounds and their reported activation at 10 µM
Target: hPPARδ (Homo sapiens, UniProt Q03181)
Construct: fragments of DNA amplified by PCR corresponding to the DEF domains of the human PPARα, PPARγ PPARδ nuclear receptors; expressed in transfected cells; host or cells: COS-7 (monkey kidney fibroblast line)
Sequence (Q03181 211-439 limits assumed): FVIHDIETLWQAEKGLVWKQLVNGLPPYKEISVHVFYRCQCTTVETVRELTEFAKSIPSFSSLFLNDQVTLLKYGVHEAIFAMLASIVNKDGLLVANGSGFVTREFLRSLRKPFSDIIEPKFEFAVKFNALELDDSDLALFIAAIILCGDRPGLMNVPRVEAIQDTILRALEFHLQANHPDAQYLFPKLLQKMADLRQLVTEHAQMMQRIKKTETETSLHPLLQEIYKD
Assay: Gal4-hPPARδ chimera transactivation in COS-7 cells (luciferase)
Format: cell-based
Conditions: induction factor standardised to an internal reference, read-out: % hGal4-PPAR transactivation (10 μM) delta

Known activation at 10 µM results, listed for orientation:
compound="CCCCC(NC(=O)Cc1ccc(OC(C)(C)C(=O)O)cc1)c1ccccc1N1CCCCC1 (stereo not shown)" measurement="< 10%"
compound="CCCCC(NC(=O)Cc1ccc(OC(C)(C)C(=O)NS(C)(=O)=O)cc1)c1ccccc1N1CCCCC1 (stereo not shown)" measurement="< 10%"

Consider the record given below.
Q) Given the entry CC(C)CC(NC(=O)Cc1ccc(OCCCC(C)(C)C(=O)O)cc1)c1ccccc1N1CCCCC1 (stereo not shown) , what activation at 10 µM was observed with hPPARδ (Homo sapiens, UniProt Q03181)?
A) < 10%

* * *

Biological target: hPPARγ (Homo sapiens, UniProt P37231)
Construct: fragments of DNA amplified by PCR corresponding to the DEF domains of the human PPARα, PPARγ PPARδ nuclear receptors; expressed in transfected cells; host or cells: COS-7 (monkey kidney fibroblast line)
Sequence (P37231 238-503 limits assumed): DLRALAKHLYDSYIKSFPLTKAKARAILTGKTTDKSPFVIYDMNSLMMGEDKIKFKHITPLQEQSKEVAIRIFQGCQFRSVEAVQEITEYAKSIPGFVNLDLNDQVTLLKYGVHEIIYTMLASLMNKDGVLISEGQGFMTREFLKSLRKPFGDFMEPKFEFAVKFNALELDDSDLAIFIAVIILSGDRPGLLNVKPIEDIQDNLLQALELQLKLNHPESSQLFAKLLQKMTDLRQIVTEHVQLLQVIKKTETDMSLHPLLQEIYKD
Assay: Gal4-hPPARγ chimera transactivation in COS-7 cells (luciferase)
Format: cell-based
Conditions: induction factor standardised to an internal reference, read-out: % hGal4-PPAR transactivation (10 μM) gamma
parameterMeasured: activation at 10 µM (%)
// return numeric value only (unit: %, not printed)

Here's what some known entries look like.
compound="CC(C)CC(NC(=O)Cc1ccc(OCCCC(C)(C)C(=O)O)cc1)c1ccccc1N1CCCCC1 (centres unmarked)" parametermeasured="activation at 10 µM" readoutunit=% measurement=17
compound="CCCCC(NC(=O)Cc1ccc(OC(C)(C)C(=O)O)cc1)c1ccccc1N1CCCCC1 (centres unmarked)" parametermeasured="activation at 10 µM" readoutunit=% measurement=49
compound="CC(C)CC(C(=O)NCc1ccc(OC(C)(C)C(=O)O)cc1)c1ccccc1N1CCCCC1 (centres unmarked)" parametermeasured="activation at 10 µM" readoutunit=% measurement=25
compound="CC(C)(Oc1ccc(CC(=O)NC(Cc2ccccc2)c2ccccc2N2CCCCC2)cc1)C(=O)O (centres unmarked)" parametermeasured="activation at 10 µM" readoutunit=% measurement=34

Q) Param item = CC(C)CC(NC(=O)Cc1ccc(OC(C)(C)C(=O)NS(=O)(=O)c2ccccc2)cc1)c1ccccc1N1CCCCC1 (centres unmarked) ; retrieve measured activation at 10 µM.
A) 18

Q) One more compound: CCCCC(NC(=O)Cc1ccc(OC(C)(C)C(=O)O)cc1)c1ccc(Br)cc1N1CCCCC1 (centres unmarked)
A) 42

* * *

Molecular target: ATP-dependent potassium channels (K+ATP) (Rattus norvegicus, UniProt Q09429)
Construct: the potassium channels derive from a rat's cerebral cortex; tissue CEREP; host or cells: rat cerebral cortex
Sequence (Q09429 whole entry): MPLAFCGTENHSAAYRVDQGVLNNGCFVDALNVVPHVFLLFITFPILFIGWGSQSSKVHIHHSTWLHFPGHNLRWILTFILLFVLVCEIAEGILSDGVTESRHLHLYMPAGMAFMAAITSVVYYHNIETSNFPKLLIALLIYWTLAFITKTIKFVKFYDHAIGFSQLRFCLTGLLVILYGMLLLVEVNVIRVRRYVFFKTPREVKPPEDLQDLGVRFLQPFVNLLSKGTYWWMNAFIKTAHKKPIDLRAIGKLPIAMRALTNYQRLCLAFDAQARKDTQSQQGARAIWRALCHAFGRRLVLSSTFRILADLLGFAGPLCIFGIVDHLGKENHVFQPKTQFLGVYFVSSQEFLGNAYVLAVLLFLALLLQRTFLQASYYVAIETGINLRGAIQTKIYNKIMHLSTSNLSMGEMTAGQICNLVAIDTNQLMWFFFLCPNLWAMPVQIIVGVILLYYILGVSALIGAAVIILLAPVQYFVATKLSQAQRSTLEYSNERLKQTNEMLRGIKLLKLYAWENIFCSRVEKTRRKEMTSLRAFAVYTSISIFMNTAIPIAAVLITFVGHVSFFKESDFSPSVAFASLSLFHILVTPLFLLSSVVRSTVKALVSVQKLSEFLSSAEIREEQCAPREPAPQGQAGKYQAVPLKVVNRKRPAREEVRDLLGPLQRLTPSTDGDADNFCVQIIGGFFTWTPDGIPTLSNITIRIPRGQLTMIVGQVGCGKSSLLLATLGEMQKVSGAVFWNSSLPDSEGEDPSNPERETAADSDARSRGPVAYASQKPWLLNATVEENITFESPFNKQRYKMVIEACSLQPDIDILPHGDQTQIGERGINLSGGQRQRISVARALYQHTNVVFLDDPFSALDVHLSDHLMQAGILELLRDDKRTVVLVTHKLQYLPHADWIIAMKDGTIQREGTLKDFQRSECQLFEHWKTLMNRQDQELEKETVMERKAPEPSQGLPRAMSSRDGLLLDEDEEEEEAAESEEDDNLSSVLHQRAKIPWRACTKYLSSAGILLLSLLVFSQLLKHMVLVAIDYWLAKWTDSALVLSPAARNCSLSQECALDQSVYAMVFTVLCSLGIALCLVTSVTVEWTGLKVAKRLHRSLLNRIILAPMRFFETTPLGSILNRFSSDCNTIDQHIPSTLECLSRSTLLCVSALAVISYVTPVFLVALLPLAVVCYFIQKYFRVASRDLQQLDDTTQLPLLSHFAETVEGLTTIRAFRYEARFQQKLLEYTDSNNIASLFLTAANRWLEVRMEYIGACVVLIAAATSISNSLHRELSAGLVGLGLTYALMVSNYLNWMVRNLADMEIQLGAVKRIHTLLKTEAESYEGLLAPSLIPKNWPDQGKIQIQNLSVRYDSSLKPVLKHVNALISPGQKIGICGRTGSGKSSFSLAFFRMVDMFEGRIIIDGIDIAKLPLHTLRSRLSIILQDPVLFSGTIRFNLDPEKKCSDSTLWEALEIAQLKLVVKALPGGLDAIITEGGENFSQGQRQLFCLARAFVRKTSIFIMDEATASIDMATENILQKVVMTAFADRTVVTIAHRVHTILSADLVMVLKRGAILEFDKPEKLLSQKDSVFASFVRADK
Sequence (P70673 whole entry partner): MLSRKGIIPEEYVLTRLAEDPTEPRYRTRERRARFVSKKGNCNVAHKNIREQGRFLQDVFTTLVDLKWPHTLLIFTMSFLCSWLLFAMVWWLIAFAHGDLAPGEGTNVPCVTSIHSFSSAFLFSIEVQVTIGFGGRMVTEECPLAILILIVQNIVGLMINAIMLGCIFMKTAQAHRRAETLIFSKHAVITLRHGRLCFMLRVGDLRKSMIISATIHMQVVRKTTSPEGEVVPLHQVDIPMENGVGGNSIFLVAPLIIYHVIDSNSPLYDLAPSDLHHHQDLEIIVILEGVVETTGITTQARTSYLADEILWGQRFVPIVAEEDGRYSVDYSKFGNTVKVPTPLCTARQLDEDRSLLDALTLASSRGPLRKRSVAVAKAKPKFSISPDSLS
Experiment: [3H]glibenclamide binding to ATP-dependent potassium channels of rat cerebral cortex
Details: 1 h; 300 nM; specific displacement of [3H]glibenclamide 0.1 nM; read-out: KATP binding (300 nM)
parameterMeasured: inhibition at 0.3 µM

Solved entries (count: 6):
compound="CC(C)CC(NC(=O)Cc1cccc(OC(C)(C)C(=O)O)c1)c1ccccc1N1CCCCC1 (stereo not shown) [Compound 29]" assayedsystem="ATP-dependent potassium channels (K+ATP) (Rattus norvegicus, UniProt Q09429)" measurement=15%
compound="CCCCC(NC(=O)Cc1ccc(OC(C)(C)C(=O)NS(=O)(=O)Cc2ccccc2)cc1)c1ccccc1N1CCCCC1 (stereo not shown) [Compound 63]" assayedsystem="ATP-dependent potassium channels (K+ATP) (Rattus norvegicus, UniProt Q09429)" measurement=67%
compound="CC(C)CC(NC(=O)Cc1ccc(OC(C)(C)C(=O)O)cc1)c1cc(Cl)ccc1N1CCCCC1 (stereo not shown) [Compound 22]" assayedsystem="ATP-dependent potassium channels (K+ATP) (Rattus norvegicus, UniProt Q09429)" measurement=88%
compound="CC(C)CC(NC(=O)C(C)c1ccc(OC(C)(C)C(=O)O)cc1)c1ccccc1N1CCCCC1 (stereo not shown) [Compound 34]" assayedsystem="ATP-dependent potassium channels (K+ATP) (Rattus norvegicus, UniProt Q09429)" measurement=81%
compound="CC(C)CC(NC(=O)Cc1ccc(OCCCCC(C)(C)C(=O)O)cc1)c1ccccc1N1CCCCC1 (stereo not shown) [Compound 57]" assayedsystem="ATP-dependent potassium channels (K+ATP) (Rattus norvegicus, UniProt Q09429)" measurement=18%
compound="CC(C)CC(NC(=O)Cc1ccc(OC(C)(C)C(=O)O)cc1)c1ccccc1N1CCCCCC1 (stereo not shown) [Compound 18]" assayedsystem="ATP-dependent potassium channels (K+ATP) (Rattus norvegicus, UniProt Q09429)" measurement=69%

Q) Recorded inhibition at 0.3 µM of CC(C)(Oc1ccc(CC(=O)NC(CCc2ccccc2)c2ccccc2N2CCCCC2)cc1)C(=O)O (stereo not shown) [Compound 51] , please.
A) 32%

Q) Now this one: CC(C)(Oc1ccc(CC(=O)NC(Cc2ccccc2)c2ccccc2N2CCCCC2)cc1)C(=O)O (stereo not shown) [Compound 7]
A) 71%

Q) For CC(C)CC(NC(=O)Cc1ccc(OC(C)(C)C(=O)O)cc1)c1ccccc1N1CCCC1 (stereo not shown) [Compound 16] then?
A) 76%

Q) // next record CC(C)CC(NC(=O)Cc1ccc(OC(C(=O)O)c2ccccc2)cc1)c1ccccc1N1CCCCC1 (stereo not shown) [Compound 27]
A) 95%

* * *

Target: hPPARγ (Homo sapiens)
Construct: fragments of DNA amplified by PCR corresponding to the DEF domains of the human PPARα, PPARγ PPARδ nuclear receptors; expressed in transfected cells; host or cells: COS-7 (monkey kidney fibroblast line)
Assay: Gal4-hPPARγ chimera transactivation in COS-7 cells (luciferase)
Assay type: cell-based
Details: induction factor standardised to an internal reference, read-out: % hGal4-PPAR transactivation (10 μM) gamma
parameterMeasured: activation at 10 µM (%)
State just the number; it will be interpreted in %.

# count of solved cases: 4
compound="CC(C)CC(NC(=O)C(C)c1ccc(OC(C)(C)C(=O)O)cc1)c1ccccc1N1CCCCC1 (centres unmarked) [Compound 34]" parametermeasured="activation at 10 µM" measurement=30
compound="Cc1cc(CC(=O)NC(CC(C)C)c2ccccc2N2CCCCC2)cc(C)c1OC(C)(C)C(=O)O (centres unmarked) [Compound 11]" parametermeasured="activation at 10 µM" measurement=47
compound="CCCCC(NC(=O)Cc1ccc(OC(C)(C)C(=O)O)cc1)c1ccccc1OCC(C)C (centres unmarked) [Compound 68]" parametermeasured="activation at 10 µM" measurement=37
compound="CC(NC(=O)Cc1ccc(OC(C)(C)C(=O)O)cc1)c1ccccc1N1CCCCC1 (centres unmarked) [Compound 2]" parametermeasured="activation at 10 µM" measurement=27

Q) For hPPARγ (Homo sapiens), provide activation at 10 µM of CCCCC(NC(=O)Cc1ccc(OC(C)(C)C(=O)O)cc1)c1ccc(-n2cccc2)cc1N1CCCCC1 (centres unmarked) [Compound 49] please.
A) 87

Q) Another compound: CCCCC(NC(=O)Cc1ccc(OC(C)(C)C(=O)O)c(OC)c1)c1ccccc1N1CCCCC1 (centres unmarked) [Compound 73]
A) 42

Q) Try this compound next: CCCCC(NC(=O)Cc1ccc(OC(C)(C)C(=O)O)cc1)c1ccccc1Sc1ccccc1 (centres unmarked) [Compound 36]
A) 73
